# target: human mAChR M4 (Homo sapiens)
# Construct: expressed in transfected cells
# testSummary: mAChR M4 cell-based functional assay (calcium mobilization, CHO-K1 hM4-Gqi5 cells)
# assaySetup: CHO-K1, % ACh maximum at 30 μM; human M4
Lab note: compare Emax at 30 µM with 70%, writing yes (1) if less and no (0) if equal or more.

Here's what some known entries look like.
>  <chemicalSmiles>
Cc1cc(C(=O)NCc2cnn3ccccc23)cnc1N1CCc2ncccc2C1

>  <target>
human mAChR M4 (Homo sapiens)

>  <labelValue>
no (0)

$$$$
>  <chemicalSmiles>
Cc1c(C#N)nnc(N2CCc3ncc(Nc4cc(Cl)cnc4F)cc3C2)c1C

>  <target>
human mAChR M4 (Homo sapiens)

>  <labelValue>
no (0)

$$$$
>  <chemicalSmiles>
Cc1c(C#N)nnc(N2CCc3ncc(Oc4ccc(F)cc4F)cc3C2)c1C

>  <target>
human mAChR M4 (Homo sapiens)

>  <labelValue>
yes (1)

$$$$

INPUT: Below 70% on Emax at 30 µM? Entry FC(F)(F)c1cnc2c(c1)CN(c1nc(Cl)nc3c1CCCC3)CC2
OUTPUT: yes (1)

INPUT: Below 70% on Emax at 30 µM? Entry Cc1cnccc1CNC(=O)c1cnc(N2CCc3ncc(-c4cn(C)nc4C)cc3C2)c(C)c1
OUTPUT: no (0)

INPUT: Below 70% on Emax at 30 µM? Entry Cc1cc(C(=O)N2CC3(COC3)C2)nnc1N1CCc2ncc(N3CCCn4nccc43)cc2C1
OUTPUT: no (0)

###

# target: human mAChR M4 (Homo sapiens, UniProt P08173)
# Construct: expressed in transfected cells
# Sequence (P08173 1-479): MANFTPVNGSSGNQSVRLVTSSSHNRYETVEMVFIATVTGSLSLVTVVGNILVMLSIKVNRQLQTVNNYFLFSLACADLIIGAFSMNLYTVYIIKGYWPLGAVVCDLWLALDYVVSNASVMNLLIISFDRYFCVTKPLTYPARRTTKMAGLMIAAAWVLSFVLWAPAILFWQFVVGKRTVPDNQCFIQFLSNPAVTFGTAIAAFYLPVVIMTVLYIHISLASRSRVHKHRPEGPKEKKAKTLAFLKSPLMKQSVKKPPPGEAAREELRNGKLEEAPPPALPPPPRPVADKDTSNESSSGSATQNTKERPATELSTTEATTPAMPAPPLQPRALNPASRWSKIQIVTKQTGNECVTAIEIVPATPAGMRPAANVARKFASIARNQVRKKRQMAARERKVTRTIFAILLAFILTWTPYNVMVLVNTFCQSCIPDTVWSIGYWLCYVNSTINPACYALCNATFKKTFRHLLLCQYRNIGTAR
# testSummary: mAChR M4 cell-based functional assay (calcium mobilization, CHO-K1 hM4-Gqi5 cells)
# assaySetup: positive allosteric modulator activity, increase in the EC20 acetylcholine response, CHO-K1 hM4-Gqi5 cells; read-out: Human M4 EC50
pEC50: recorded values
Please treat pEC50 as minus the base-10 logarithm of the molar concentration.

INPUT: Fill in pEC50 for record Fc1ccccc1Oc1cnc2c(c1)CN(c1nc(Cl)nc3c1COC3)CC2 [compound 290]
OUTPUT: 6.00

INPUT: Fill in pEC50 for record Cc1nc(Cl)c(C)c(N2CCc3ncc(C(F)(F)F)cc3C2)n1 [compound 200]
OUTPUT: 6.89

INPUT: Fill in pEC50 for record Cc1cc(C(=O)NCc2cnc(Cl)s2)cnc1N1CCc2ncccc2C1 [compound 134]
OUTPUT: 5.79

INPUT: Fill in pEC50 for record Cc1cnccc1Nc1cnc2c(c1)CN(c1nnc(C#N)c(C)c1C)CC2 [Example 618]
OUTPUT: 6.41
